Assay target: HLA-A*0203 (Human)
Test summary: competition with 125I-labeled probe peptide for purified HLA, gel filtration
Run conditions: remark: other sources report otherwise
Measured parameter: pIC50
Remember the convention: pIC50 equals -log10 of concentration in molar.

Reported pIC50 for VLLDYQGMLPV (modifications not checked) [HBV ENV 259 peptide 1147.14 (…)] : what is it?
8.70
